These measurements were taken from patent US9988400B2.

- target or test system: HEK cells stably transfected with tetracycline inducible hNR1 and hNR2A (Homo sapiens, UniProt Q05586+Q12879)
- Construct: expressed in transfected cells; host or cells: HEK cells, stably transfected, tetracycline/doxycycline inducible
- Sequence (Q12879 23-1464, other chains not shown): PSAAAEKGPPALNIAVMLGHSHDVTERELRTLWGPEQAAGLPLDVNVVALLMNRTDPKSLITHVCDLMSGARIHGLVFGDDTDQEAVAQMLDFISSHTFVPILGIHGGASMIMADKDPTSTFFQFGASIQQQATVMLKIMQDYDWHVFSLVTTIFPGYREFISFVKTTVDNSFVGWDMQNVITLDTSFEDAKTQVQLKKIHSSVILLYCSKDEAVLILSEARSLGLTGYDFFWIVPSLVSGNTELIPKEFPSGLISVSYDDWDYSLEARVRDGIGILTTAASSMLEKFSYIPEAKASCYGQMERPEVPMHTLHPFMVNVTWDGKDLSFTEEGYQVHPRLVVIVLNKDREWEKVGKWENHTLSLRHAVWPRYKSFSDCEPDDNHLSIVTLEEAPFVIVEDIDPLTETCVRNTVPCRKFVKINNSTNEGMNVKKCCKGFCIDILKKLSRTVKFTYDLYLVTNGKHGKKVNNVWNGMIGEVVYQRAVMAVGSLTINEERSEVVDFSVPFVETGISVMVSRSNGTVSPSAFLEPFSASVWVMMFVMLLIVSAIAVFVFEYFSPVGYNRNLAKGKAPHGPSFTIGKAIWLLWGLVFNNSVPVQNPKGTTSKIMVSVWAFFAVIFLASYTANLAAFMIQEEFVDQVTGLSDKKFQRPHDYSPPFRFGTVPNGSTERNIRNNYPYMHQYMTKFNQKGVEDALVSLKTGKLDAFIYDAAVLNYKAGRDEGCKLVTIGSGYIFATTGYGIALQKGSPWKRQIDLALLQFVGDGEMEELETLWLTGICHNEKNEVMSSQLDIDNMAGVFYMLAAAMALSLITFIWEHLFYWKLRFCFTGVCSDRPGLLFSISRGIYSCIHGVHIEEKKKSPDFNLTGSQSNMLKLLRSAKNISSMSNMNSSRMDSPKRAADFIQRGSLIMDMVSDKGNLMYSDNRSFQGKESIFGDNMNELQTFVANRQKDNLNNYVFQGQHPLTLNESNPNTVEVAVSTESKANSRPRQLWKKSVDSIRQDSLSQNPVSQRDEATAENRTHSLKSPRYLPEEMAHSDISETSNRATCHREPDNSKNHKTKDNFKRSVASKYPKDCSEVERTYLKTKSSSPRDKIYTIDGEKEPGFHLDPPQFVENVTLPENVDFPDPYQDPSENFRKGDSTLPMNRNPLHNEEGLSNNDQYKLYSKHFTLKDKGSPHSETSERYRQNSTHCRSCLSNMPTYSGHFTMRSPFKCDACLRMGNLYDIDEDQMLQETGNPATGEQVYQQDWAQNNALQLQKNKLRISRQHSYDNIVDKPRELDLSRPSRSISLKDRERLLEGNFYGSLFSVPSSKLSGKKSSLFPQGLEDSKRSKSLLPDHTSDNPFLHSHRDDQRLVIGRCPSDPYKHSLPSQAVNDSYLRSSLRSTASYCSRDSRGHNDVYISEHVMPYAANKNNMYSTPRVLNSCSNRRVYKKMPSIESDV
- test method notes: Assay 1: Cell-Based Assay, cytosolic calcium response to positive allosteric modulators (with 30 μM glycine and 300 nM L-glutamate, EC30)
- particulars: Table 2; responses scaled relative to 100 μM L-glutamate maximal response (100%) and 0 μM L-glutamate (0%)
Attribute: Max %
observable: Max % (%)

* Cc1sc2nc(COc3ccc(F)cc3)cc(=O)n2c1C(=O)NCC1COC1 | 41.6
* Cc1sc2nc(COc3ccc(F)cc3)cc(=O)n2c1C1CC1CF (centres unmarked) | 89
* CCN(Cc1cc(=O)n2c(-c3nc(C)cs3)c(C)sc2n1)c1ccc(F)cc1 | 127
* Cc1sc2nc(Cn3ccc(C(F)(F)F)n3)cc(=O)n2c1[C@@H]1C[C@H]1CO (relative stereo) | 131
* O=c1cc(COc2ccc(F)cc2)nc2scc([C@@H]3C[C@H]3CO)n12 (relative stereo) | 93
* CCN(Cc1cc(=O)n2c(Br)c(C3CC3)sc2n1)c1ccc(F)cc1 | 129
* Cc1sc2nc(COc3ccc(Cl)cc3)cc(=O)n2c1[C@@H]1C[C@H]1CO (relative stereo) | 99.3
* CNC(=O)c1c(C)sc2nc(Cc3cccc(C#N)c3)cc(=O)n12 | 96.6
* Cc1sc2nc(Cc3cncc4ccccc34)cc(=O)n2c1[C@@H]1C[C@H]1CO (relative stereo) | 147
* CCNC(=O)c1c(C)sc2nc(Cc3cc(C#N)ccc3F)cc(=O)n12 | 88.8
* Cc1cc(C)n(Cc2cc(=O)n3c([C@@H]4C[C@H]4CO)c(C)sc3n2)n1 (relative stereo) | 137
* CCNC(=O)c1c(C)sc2nc(Cc3cc(F)ccc3C3CC3)cc(=O)n12 | 96.3
* Cc1sc2nc(COc3ccc(F)cc3F)cc(=O)n2c1[C@@H]1C[C@H]1CO (relative stereo) | 128
* CCN(Cc1cc(=O)n2c(CCCCO)c(C)sc2n1)c1ccc(F)cc1 | 137
* CCN(Cc1cc(=O)n2c(-c3cncc(F)c3)c(C)sc2n1)c1ccc(F)cc1 | 142
* CNC(=O)c1c(C)sc2nc(Cc3cccc(C(F)(F)F)c3)cc(=O)n12 | 112
* CCNC(=O)c1c(C)sc2nc(Cc3cc(F)c(F)cc3CC)cc(=O)n12 | 145

###

- target or test system: HEK cells stably transfected with tetracycline inducible hNR1 and hNR2A (Homo sapiens, UniProt Q05586+Q12879)
- Construct: expressed in transfected cells; host or cells: HEK cells, stably transfected, tetracycline/doxycycline inducible
- test method notes: Assay 1: Cell-Based Assay, cytosolic calcium response to positive allosteric modulators (with 30 μM glycine and 300 nM L-glutamate, EC30)
- particulars: Table 3; cytosolic calcium response, with 30 μM glycine and 300 nM L-glutamate (EC30); — = no plateau was reached
- Description: Assay 1: Cell-Based Assay HEK cells stably transfected with tetracycline inducible hNR1 and hNR2A were seeded into clear bottom 384 well poly-D-lysine coated plates (2.5×10^4 cells per well) in Minimum Essential Media (MEM; without L-) including 7.5 μg mL^−1 doxycycline and 500 μM (+)-ketamine. The cells were incubated at 37° C. in 5% CO2 for 24 h. […] Compounds were added after a 10 second baseline read and maximum level of relative fluorescence units (RFU) was measured over a 5 min period. […]
pEC50: −log10 of the molar value.
The label depends only on pEC50: yes if it is at least 6, no if it is smaller.

* Cc1sc2nc(CN(C)c3ccc(Cl)cn3)cc(=O)n2c1C1CC1CO (centres unmarked) [compound 163] | yes
* CCNC(=O)c1c(C(F)(F)F)sc2nc(CN(CC)c3ccc(F)cc3)cc(=O)n12 [compound 83] | yes
* CNC(=O)c1c(C(F)(F)F)sc2nc(Cn3nc(C(F)(F)F)cc3C3CC3)cc(=O)n12 [compound 53] | yes
* Cc1sc2nc(Cn3nc(C(F)(F)F)cc3C3CC3)cc(=O)n2c1C(=O)NCC(F)(F)F [compound 57] | yes
* Cc1sc2nc(Cn3nc(C(F)(F)F)cc3Cl)cc(=O)n2c1C(C)(C)O [compound 108] | yes
* O=c1cc(Cn2nc(C(F)(F)F)cc2Cl)nc2scc(Br)n12 [compound 225] | no
* CNC(=O)c1c(C)sc2nc(Cn3nc(Cl)cc3C(F)(F)F)cc(=O)n12 [compound 97] | no
* CCNC(=O)c1c(C(F)(F)F)sc2nc(Cn3nc(C)cc3C(F)(F)F)cc(=O)n12 [compound 46] | no
* Cc1sc2nc(Cn3ccc(C(F)(F)F)n3)cc(=O)n2c1C1CC1C#N (single isomer, unassigned) [compound 273] | no
* CCc1sc2nc(Cn3nc(C(F)(F)F)cc3Cl)cc(=O)n2c1C1CC1C#N (centres unmarked) [compound 213] | yes
* Cc1sc2nc(Cn3nc(C(F)(F)F)cc3C)cc(=O)n2c1C(=O)NCC(F)(F)F [compound 52] | no
